Task for the reader: assign each of the following molecules its reported T/C.
Test system: L1210 leukemia ip in BDF1 mice, survival T/C
test: NCI In Vivo Anticancer Drug Screen. Data for tumor model L1210 Leukemia (intraperitoneal) in B6D2F1 (BDF1) mice
condition.notes: endpoint: mean survival time; dose: 50.0 mg/kg/injection; schedule: Q04DX002 (ip); vehicle: Klucel (hydroxypropylcellulose) (HPC); higher = longer survival
Inconclusive results and toxic doses are left out.

# example entries with known answers
In [3]: df
Out[3]:
                                   molecule   endpoint_value
0  CC(=O)OC1CCC2(C)C(=CCC3C2CCC2(C)C3CC3C2C(c2ccccc2)=NN3c2ccccc2)C1 (centres undefined)  96 % of control
1  COc1cc(Cn2cccc2/C=C(\C#N)C(N)=O)cc(OC)c1  97 % of control
2   CC(NC1CCCCC1)C(=O)O (centres undefined)  89 % of control

Now consider the entry below.
Which T/C value belongs to `NC(CSS(=O)(=O)O)=NCc1ccccc1` ?
97 % of control

Measured values drawn from PubChem BioAssay AID248 for this set.
